- ASSAY PROCEDURE: Cytotoxicity against human THP1 cells assessed as cell viability at 100 uM after 72 hrs by MTT assay
- Format: cell-based
- CONDITION DETAILS: THP-1 cells, read-out: Activity
QUANTITY: viability at 72 h, 100 µM (%)

• C=C(C(=O)O)C(O)c1ccc(Cl)cc1Cl (centres undefined) = 88.1
• C=C(C(=O)OCC)C(OC)c1ccccc1Cl (centres undefined) = 78.1
• C=C(C(=O)OCC)C(OCCC(=O)OCC)c1ccccc1Cl (centres undefined) = 95.7
• CCOC(=O)C(C)Cc1ccccc1Cl (centres undefined) = 86.1
• CC(Cc1ccccc1Cl)C(=O)O (centres undefined) = 98.7
• C=C(C(=O)OCC)C(OCCC(=O)OCC)c1ccc(Cl)cc1Cl (centres undefined) = 87.7
• C=C(Cc1ccccc1Cl)C(=O)O = 102
• C=C(C(=O)O)C(O)c1ccccc1Cl (centres undefined) = 80.7
• C=C(Cc1ccccc1Cl)C(=O)OCC = 96.6

###

- ASSAY PROCEDURE: Cysteamine reactivity of the compound in PBS assessed as second order rate constant for free cysteamine release at 250 uM and pH 7.4 after 90 mins by DTNB reagent based RP-UHPLC analysis
Structures can show the parent of a compound that is named as a salt.
Kindly return Yes if reported K is no lower than 2 M⁻¹ s⁻¹; return No if it is lower.

• CCOC(=O)C1=CCOC1c1ccccc1Cl (centres undefined) = Yes
• C=C(C(=O)OCC)C(OC(C)=O)c1ccccc1Cl (centres undefined) = Yes
• C=C(C(=O)OCC)C(O)c1ccc(Cl)cc1Cl (centres undefined) = No
• O=[N+]([O-])/C=C/c1ccc2c(c1)OCO2 = Yes
• C=C(C(=O)OCC)C(OC)c1ccccc1Cl (centres undefined) = No
• C=C(C(=O)OCC)C(OCCC(=O)OCC)c1ccc(Cl)cc1Cl (centres undefined) = No
• COC(=O)/C=C/C(=O)OC [DIMETHYL FUMARATE] = Yes
• C=C(C(=O)OCC)C(OCCC(=O)OCC)c1ccccc1Cl (centres undefined) = No
• C=C(C(=O)OCC)C(O)c1ccccc1Cl (centres undefined) = No

###

- ASSAY PROCEDURE: Cytotoxicity against human THP1 cells assessed as reduction in cell viability after 72 hrs by MTT assay
- Format: cell-based
- CONDITION DETAILS: THP-1 cells, read-out: TC50
Where a name gives a salt, the structure may show the parent alone.
Label criterion met when CC50 at 72 h < 60 µM; otherwise criterion not met.

• Cc1ccc(S(=O)(=O)/C=C/C#N)cc1 = criterion met
• C=C(Cc1ccccc1Cl)C(=O)O = criterion not met
• C=C(Cc1ccccc1Cl)C(=O)OCC = criterion not met
• C=C(C(=O)OCC)C(O)c1ccccc1Cl (stereo not given) = criterion not met
• O=[N+]([O-])/C=C/c1ccc2c(c1)OCO2 = criterion met
• COC(=O)/C=C/C(=O)OC [DIMETHYL FUMARATE] = criterion not met
• C=C(C(=O)O)C(O)c1ccc(Cl)cc1Cl (stereo not given) = criterion not met
• C=C(C(=O)O)C(O)c1ccccc1Cl (stereo not given) = criterion not met
• C=C(C(=O)OCC)C(O)c1ccc(Cl)cc1Cl (stereo not given) = criterion not met
• CC(Cc1ccccc1Cl)C(=O)O (stereo not given) = criterion not met
• C=C(C(=O)OCC)C(OC(C)=O)c1ccccc1Cl (stereo not given) = criterion met
• C=C(C(=O)OCC)C(OC)c1ccccc1Cl (stereo not given) = criterion not met
• CCOC(=O)C(C)Cc1ccccc1Cl (stereo not given) = criterion not met
• C=C(C(=O)OCC)C(OCCC(=O)OCC)c1ccc(Cl)cc1Cl (stereo not given) = criterion not met
• C=C(C(=O)OCC)C(OCCC(=O)OCC)c1ccccc1Cl (stereo not given) = criterion not met
